Biological target: Gal4DBD/AaEcR (DEF) (Aedes aegypti, UniProt P49880)
Construct: The wildtype D, E, and F domains from mosquito Aedes aegypti EcR; expressed in transfected cells; host or cells: 3T3 cells
Sequence (P28704 286-520 A311G/G315S/G445S/I449V): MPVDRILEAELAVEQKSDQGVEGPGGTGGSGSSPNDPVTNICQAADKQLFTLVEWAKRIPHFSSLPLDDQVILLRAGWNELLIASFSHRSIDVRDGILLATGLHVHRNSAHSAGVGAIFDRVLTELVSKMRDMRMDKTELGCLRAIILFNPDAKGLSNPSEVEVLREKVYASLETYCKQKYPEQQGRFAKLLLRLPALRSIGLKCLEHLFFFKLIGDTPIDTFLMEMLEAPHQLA
Sequence (P49880 405-776): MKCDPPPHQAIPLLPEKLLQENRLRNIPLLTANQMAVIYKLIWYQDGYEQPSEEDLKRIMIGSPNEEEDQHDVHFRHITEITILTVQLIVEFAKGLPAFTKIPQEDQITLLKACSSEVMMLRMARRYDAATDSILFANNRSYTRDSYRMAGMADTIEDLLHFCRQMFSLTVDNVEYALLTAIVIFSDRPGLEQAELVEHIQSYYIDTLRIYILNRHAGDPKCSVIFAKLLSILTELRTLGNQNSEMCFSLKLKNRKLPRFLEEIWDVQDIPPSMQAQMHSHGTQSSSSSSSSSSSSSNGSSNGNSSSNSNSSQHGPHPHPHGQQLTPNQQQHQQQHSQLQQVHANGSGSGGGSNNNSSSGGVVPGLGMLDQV
Assay: cell-based
Format: cell-based
Conditions: 33 μM; 3T3 cells; 48 h; average of two wells
Procedure: 3T3 cells were trypsinized and plated at 2.5×10^3 cells/well on a 96-well plate. After incubation for 24 h at 37° C. under 5% CO2, cells were transfected with the Gal4DBD/AaEcR (DEF) gene expression cassette and the reporter plasmid, pFRLuc, containing a 5× GAL4 response element and the firefly luciferase gene in serum free media using Superfect (Qiagen). After transfection for 4 h at 37° C., the cells were treated with ligand in serum media. […] Single dose testing was performed at 33 μM.
value type: Fold Induction Average, AA_3T3V1 Assay 33 μM (fold)
Form entry: value (fold) — number only.

Some compounds with recorded Fold Induction Average, AA_3T3V1 Assay 33 μM:
>  <compound>
Cc1ccc(N[C@H]2C[C@H](C)N(C(=O)c3ccc(C(F)(F)F)c(F)c3)c3ccc(C)cc32)cc1 (relative stereo)

>  <readout units>
fold

>  <reported value>
87

$$$$
>  <compound>
Cc1ccc(N[C@H]2C[C@H](C)N(C(=O)c3cccc(C)c3)c3ccc(C)cc32)cc1 (relative stereo)

>  <readout units>
fold

>  <reported value>
3

$$$$
>  <compound>
C[C@H]1C[C@H](Nc2ccc(F)cc2)c2cc(F)ccc2N1C(=O)c1cccc(F)c1 (relative stereo)

>  <readout units>
fold

>  <reported value>
272

$$$$
>  <compound>
C[C@H]1C[C@@H](Nc2ccccc2)c2ccccc2N1C(=O)c1ccc2c(c1)OCO2 (relative stereo)

>  <readout units>
fold

>  <reported value>
48

$$$$
>  <compound>
COc1ccc(C(=O)N2c3ccccc3C(Nc3ccccc3)CC2C)cc1 (stereo not shown)

>  <readout units>
fold

>  <reported value>
11

$$$$

Report Fold Induction Average, AA_3T3V1 Assay 33 μM for CC1CC(Nc2ccccc2)c2ccccc2N1C(=O)COc1ccccc1Cl (stereo not shown) please.
1

Item: Cc1cccc(C(=O)N2c3ccccc3C(N(C(=O)c3cccc(C)c3)c3ccccc3)CC2C)c1 (stereo not shown)
1

* * *

target: Gal4DBD/AaEcR (DEF) (Aedes aegypti, UniProt P49880); construct: The wildtype D, E, and F domains from mosquito Aedes aegypti EcR; expressed in transfected cells; host or cells: 3T3 cells; experiment: cell-based; format: cell-based; settings: 33 μM; 3T3 cells; 48 h; average of two wells
Assign class by Fold Induction Average, AA_3T3V1 Assay 33 μM: not lower than 200 fold means YES; lower than 200 fold means NO.

Known results for compounds:
>  <compound>
CC(=O)N(c1ccccc1)C1CC(C)N(C(=O)C=Cc2ccccc2)c2ccccc21 (stereo not shown)

>  <target under test>
Gal4DBD/AaEcR (DEF) (Aedes aegypti, UniProt P49880)

>  <class name>
NO

$$$$
>  <compound>
CC(=O)N(c1ccc(C)cc1)C1CC(C)N(C(=O)c2ccccc2)c2ccccc21 (stereo not shown)

>  <target under test>
Gal4DBD/AaEcR (DEF) (Aedes aegypti, UniProt P49880)

>  <class name>
NO

$$$$
>  <compound>
Cc1ccc(NC2CC(C)N(C(=O)c3ccccc3F)c3ccc(C)cc32)cc1 (stereo not shown)

>  <target under test>
Gal4DBD/AaEcR (DEF) (Aedes aegypti, UniProt P49880)

>  <class name>
NO

$$$$

Could you verify whether the entry CCc1ccc(C(=O)N2c3ccc(F)cc3[C@@H](Nc3ccc(F)cc3)C[C@@H]2C)cc1 (relative stereo) shows Fold Induction Average, AA_3T3V1 Assay 33 μM of no less than 200 fold?
YES

Item: C[C@H]1C[C@@H](Nc2ccc(F)cc2)c2cc(F)ccc2N1C(=O)c1ccccc1 (relative stereo)
NO

Item: CCCCCCCC(=O)N1c2ccccc2[C@@H](Nc2ccccc2)C[C@@H]1C (relative stereo)
NO

Item: C[C@H]1C[C@H](Nc2ccccc2)c2ccccc2N1C(=O)c1cccc(F)c1 (relative stereo)
YES

* * *

biological target: Gal4DBD/AaEcR (DEF) (Aedes aegypti, UniProt P49880); construct: The wildtype D, E, and F domains from mosquito Aedes aegypti EcR; expressed in transfected cells; host or cells: 3T3 cells; test: cell-based; format: cell-based; conditions: 33 μM; 3T3 cells; 48 h; average of two wells
value type: Fold Induction Average, AA_3T3V1 Assay 33 μM
Don't forget the unit after the value.

>  <molecule>
Cc1ccc(N[C@H]2C[C@H](C)N(C(=O)c3cccc(F)c3)c3ccc(C)cc32)cc1 (relative stereo)

>  <reported value>
207 fold

$$$$
>  <molecule>
Cc1cccc(C(=O)N2c3ccc(F)cc3C(Nc3ccc(F)cc3)CC2C)c1 (centres unmarked)

>  <reported value>
142 fold

$$$$
>  <molecule>
C[C@H]1C[C@H](Nc2ccccc2)c2ccccc2N1C(=O)c1ccc(C(F)(F)F)c(F)c1 (relative stereo)

>  <reported value>
135 fold

$$$$
>  <molecule>
C[C@H]1C[C@H](Nc2ccc(F)cc2)c2cc(F)ccc2N1C(=O)c1ccc(C(F)(F)F)c(F)c1 (relative stereo)

>  <reported value>
112 fold

$$$$
>  <molecule>
Cc1ccc(C(=O)N2c3ccc(F)cc3C(N(C(=O)c3ccc(C)c(F)c3)c3ccc(F)cc3)CC2C)cc1F (centres unmarked)

>  <reported value>
686 fold

$$$$
>  <molecule>
C[C@H]1C[C@H](Nc2ccc(F)cc2)c2cc(F)ccc2N1C(=O)c1cccc(C(F)(F)F)c1 (relative stereo)

>  <reported value>
595 fold

$$$$

Report Fold Induction Average, AA_3T3V1 Assay 33 μM for CC(=O)N(c1ccc(F)cc1)C1CC(C)N(C(=O)c2ccc(C)c(F)c2)c2ccc(F)cc21 (centres unmarked) please.
1 fold

Item: COC(=O)c1ccc(C(=O)N2c3ccc(F)cc3C(Nc3ccc(F)cc3)CC2C)cc1 (centres unmarked) [Compound I-94]
798 fold

Item: CC1CC(Nc2ccccc2)c2ccccc2N1C(=O)c1cccc(Br)c1 (centres unmarked)
47 fold

Item: COc1ccc(C=CC(=O)N2c3ccccc3[C@@H](Nc3ccccc3)C[C@@H]2C)cc1OC (relative stereo)
4 fold

Item: CC1CC(Nc2ccccc2)c2ccccc2N1C(=O)COc1ccc(F)cc1 (centres unmarked)
12 fold

Item: Cc1ccc(C(=O)N2c3ccccc3C(Nc3ccccc3)CC2C)cc1 (mixture of isomers) [Compound I-39]
182 fold

Item: Cc1ccc(NC2CC(C)N(C(=O)c3ccc(C(F)(F)F)c(F)c3)c3ccc(C)cc32)cc1 (centres unmarked)
3 fold

Item: COc1ccc(C(=O)N2c3ccc(C)cc3[C@@H](Nc3ccc(C)cc3)C[C@@H]2C)cc1 (relative stereo)
213 fold

Item: Cc1ccc(NC2CC(C)N(C(=O)c3ccc4c(c3)OCO4)c3ccc(C)cc32)cc1 (centres unmarked)
1 fold

Item: Cc1ccc(N[C@H]2C[C@H](C)N(C(=O)c3ccc(F)c(F)c3)c3ccc(C)cc32)cc1 (relative stereo)
52 fold

Item: COc1ccc(C(=O)N2c3ccccc3C(N(C(=O)c3cccs3)c3ccccc3)CC2C)cc1 (centres unmarked)
162 fold

Item: CC1CC(Nc2ccc(F)cc2)c2cc(F)ccc2N1C(=O)c1ccc2c(c1)OCO2 (centres unmarked)
76 fold

Item: COC(=O)c1ccc(C(=O)N2c3ccc(C)cc3[C@@H](Nc3ccc(C)cc3)C[C@@H]2C)cc1 (relative stereo)
30 fold

Item: Cc1ccc(N[C@H]2C[C@H](C)N(C(=O)c3ccc(C)cc3)c3ccc(C)cc32)cc1 (relative stereo)
250 fold

Item: CC1CC(N(C(=O)c2cccc(F)c2)c2ccccc2)c2ccccc2N1C(=O)c1cccc(F)c1 (centres unmarked)
1 fold

Item: C[C@H]1C[C@H](Nc2ccc(F)cc2)c2cc(F)ccc2N1C(=O)c1ccc(C(F)(F)F)cc1 (relative stereo)
914 fold

Item: COc1cccc(C(=O)N(c2ccccc2)C2CC(C)N(C(C)=O)c3ccccc32)c1 (centres unmarked)
1 fold

Item: C[C@H]1C[C@H](Nc2ccc(F)cc2)c2cc(F)ccc2N1C(=O)c1ccc(F)c(C(F)(F)F)c1 (relative stereo)
366 fold

Item: Cc1ccc(C(=O)N2c3ccccc3[C@@H](Nc3ccccc3)C[C@@H]2C)cc1 (relative stereo)
79 fold

Item: Cc1ccc(NC2CC(C)N(C(=O)c3ccc(F)cc3)c3ccc(C)cc32)cc1 (centres unmarked)
1 fold

Item: CC1CC(Nc2ccc(F)cc2)c2cc(F)ccc2N1C(=O)c1ccnc(Cl)c1 (centres unmarked)
1100 fold

Item: CC1CC(Nc2ccccc2)c2ccccc2N1C(=O)Nc1ccccc1 (centres unmarked) [Compound I-176]
268 fold

Item: Cc1ccc(N[C@@H]2C[C@H](C)N(C(=O)c3ccc(C)c(F)c3)c3ccc(C)cc32)cc1 (relative stereo)
1 fold

* * *

target: Gal4DBD/AaEcR (DEF) (Aedes aegypti, UniProt P49880); construct: The wildtype D, E, and F domains from mosquito Aedes aegypti EcR; expressed in transfected cells; host or cells: 3T3 cells; assay: cell-based; type: cell-based; settings: 33 μM; 3T3 cells; 48 h; average of two wells
value type: Fold Induction Average, AA_3T3V1 Assay 33 μM
Don't forget the unit after the value.

>  <compound>
CC1CC(Nc2ccccc2)c2ccccc2N1C(=O)CN1C(=O)CCC1=O (stereo not shown) [Compound I-167]

>  <reported value>
1 fold

$$$$

Report Fold Induction Average, AA_3T3V1 Assay 33 μM for C[C@H]1C[C@H](Nc2ccccc2)c2ccccc2N1C(=O)c1ccc(F)c(F)c1 (relative stereo) [Compound I-15] please.
132 fold

Item: CC1CC(Nc2ccccc2)c2ccccc2N1C(=O)CCC1CCCCC1 (stereo not shown) [Compound I-170]
2 fold

Item: Cc1ccccc1C(=O)N1c2ccc(F)cc2C(Nc2ccc(F)cc2)CC1C (stereo not shown) [Compound I-56]
158 fold

The origin of these recorded values is patent US20050228016A1.
